Origin of measurements: PubChem BioAssay AID1159580

ASSAY COMMENT: chemical genetic growth profiling, strain panel (AID 1159580);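 further: tested at 20 µM; growth read once vehicle control cultures reached saturation at 30 °C; 1 = growth at the plate median or of vehicle wells; lower values mean less growth of the strain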
CONDITION LABEL: S. cerevisiae deletion strains, growth OD, locus YNL298W, strain CLA4, active compounds read low
The campaign covered roughly 5,500 compounds. About 2,000 (36%) were called active. Inconclusive results (about 18%) are left out. The list shows a part of the results.
Kindly state normalized growth for each of the entries shown.
Give bare numbers.

// known answers, use as guide
{"columns": ["MOLECULE", "normalized growth"],
 "data": [
  ["COc1ccc2c(c1)OC[C@@H](Cc1ccc(OC)c(OC)c1)[C@H]2O", 0.991],
  ["COc1ccc(CC2c3cc(OC)c(OC)cc3CCN2C)cc1OC (stereo not drawn)", 0.978],
  ["CCc1ccc(CCOc2ccc(CC3SC(=O)NC3=O)cc2)nc1 (stereo not drawn)", 0.997]
]}

Give normalized growth for all molecules that follow.
1. OCC(O)Cc1ccc2c(c1)OCO2 (stereo not drawn)
2. O=C(O)C1C(O)CCC2CN3CCc4c([nH]c5ccccc45)C3CC21 (stereo not drawn)
3. COC(=O)[C@@H]1C(O)CC[C@H]2CN3CCc4c([nH]c5ccccc45)[C@@H]3C[C@@H]21 (stereo partly drawn)
4. Nc1nc2[nH]c(=O)c(=O)[nH]c2c(=O)[nH]1
5. COc1ccc2c(c1)C1(C)CCC(=O)CC1CC2 (stereo not drawn)
6. CCCCCC(=O)O[C@]1(C(C)=O)CCC2C3CCC4=CC(=O)CC[C@]4(C)C3CC[C@@]21C (stereo partly drawn)

Reply |
[1.01, 1.02, 0.975, 1, 0.982, 1.02]
